Origin of values: patent US12691070B2

Test system: BALB/C mice
Assay: In vivo expression, whole-body luminescence (IVIS)
Conditions: cirRNA (SEQ ID NO: 1) LNPs, BALB/C mice
Parameter In vivo Expression (Whole Body): see the listing below.

Reference set, count: 3
CCCCCCCCCC(=O)OCCCCCCCN(CCCCCCCCOC(=O)C(CCCCCC)CCCCCCCC)CCCOC(=O)NCc1ncc[nH]1 (stereo not shown) [Lipid 360] = 7.50E+07
CCCCCCCCC(CCCCCCCC)OC(=O)CCCCCCCN(CCCCCCCCOC(=O)C(CCCCCC)CCCCCCCC)CCOC(=O)NCCN1CCCCC1 (stereo not shown) [Lipid 149] = 6.07E+07
CCCCCCCCC(CCCCCC)C(=O)OCCCCCCCCN(CCCCCCCCOC(=O)C(CCCCCC)CCCCCCCC)CCCOC(=O)NCCN1CCCC1 (stereo not shown) [Lipid 379] = 2.86E+07

Any idea what its In vivo Expression (Whole Body) is? The molecule is CCCCCCCCCCC(CCCCCCCC)COC(=O)CCCCCN(CCCCCC(=O)OCC(CCCCCCCC)CCCCCCCCCC)CCCOC(=O)NCCN1CCCC1 (stereo not shown) [Lipid 369]
1.30E+07

Continue with CCCCC/C=C\CCOC(=O)CCCCCN(CCCCCCCCOC(=O)C(CCCCCC)CCCCCCCC)CCOC(=O)NCCN1CCCC1 (stereo not shown) [Lipid 191]
1.02E+07

Follow-up entry: CCCCC/C=C\CCOC(=O)CCCCCN(CCCCCCCCOC(=O)C(CCCCCC)CCCCCCCC)CCOC(=O)NCCCN(CC)CC (stereo not shown) [Lipid 186]
2.96E+06

Moving on to CCCCCCCC/C=C\CCCCCCCCN(CCCCCCCCOC(=O)C(CCCCCC)CCCCCCCC)CCOC(=O)NCCN1CCCC1 (stereo not shown) [Lipid 218]
7.53E+07
